The measured values listed here are drawn from the supplement of paper PMC10567573.

B1: KCNG1 (parent)
chain: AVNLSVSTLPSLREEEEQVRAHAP

variants of: B1; assay: protein stability index of a GFP-peptide fusion (GPS, HEK-293T) (PSI 1-6); higher = more stable; details: c terminus: a fixed tail appended;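 note: lentivirally expressed fusions sorted by FACS into six bins by GFP to DsRed ratio, PSI derived from sequencing read proportions per bin multiplied by bin number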
Values of protein stability index greater than or equal to 5 map to T; values below map to F.

Exercise: Is protein stability index at least 5? Consider AVNLSVSVLPSLREEEEQVRAHAP [T8V]
Solution: F

Exercise: Now consider AVNLSVSTLPSLREEEEQDRAHAP [V19D] .
Solution: T

Exercise: Now consider AVNLSVSTLPSLREEEAQVRAHAP [E17A] .
Solution: F

Exercise: Now consider AVELSVSTLPSLREEEEQVRAHAP [N3E] .
Solution: T
